For reference, the following pIC50 results for Glycogen synthase kinase-3 beta (Homo sapiens, UniProt P49841) were taken from various sources.
pIC50: −log10 of the molar value.

Answered examples (5):
| molecule | pIC50 |
| --- | --- |
| NC(=O)C(Cc1ccccc1)NC(=O)c1ccc(-c2ccnc(NCCc3ccccn3)n2)cc1 (stereo not shown) | ≥ 5.00 |
| O=C1NCCc2cccc(c2)Nc2ncnc(n2)-c2ccnc(c2)CCCN2C[C@H](O)C[C@@H]12 | 7.00 to 8.00 |
| Cc1oc(CN2CCOCC2)cc1C(=O)Nc1c[nH]nc1C(=O)NC1CCC(C(C)(C)C)CC1 (stereo not shown) | > 5.00 |
| O=C(O)c1c(-c2ccccc2)nc(NCCNc2ccc([N+](=O)[O-])cn2)nc1-c1ccccc1F | ≥ 5.00 |
| NC(=O)c1ccc(-c2ccnc(NCCNc3ccc4ccccc4n3)n2)cc1 | ≥ 6.00 |

Form field - read-out: pIC50; system: Glycogen synthase kinase-3 beta (Homo sapiens, UniProt P49841); submitted item: CCSc1ccncc1NC(=O)c1ccnc2[nH]c(-c3ccc(Cl)cc3)nc12 8.52

Form field - read-out: pIC50; system: Glycogen synthase kinase-3 beta (Homo sapiens, UniProt P49841); submitted item: O=c1cc(-c2ccncc2)nc2cc(-c3ccccc3)ccn12 6.31

###

For reference, the following pIC50 results for Glycogen synthase kinase-3 beta (Homo sapiens, UniProt P49841) were taken from various sources.
pIC50: −log10 of the molar value.

Answered examples (5):
| compound | reported.measurement |
| --- | --- |
| C(=N\Nc1ncnc2c1cnn2-c1ccccn1)/c1cccnc1 | 6.00 to 7.00 |
| N#Cc1ccc(NCCNc2nc(-c3ccc(Cl)cc3Cl)cc3ncc(Cl)n23)nc1 | 7.72 |
| COc1ccc(CNC(=O)c2ccc(-c3ccnc(NCCNc4ccc([N+](=O)[O-])cn4)n3)cc2)cc1OC | ≥ 5.00 |
| O=C(NCc1cccc([N+](=O)[O-])c1)c1ccc(-c2ccnc(NCCNc3ccc([N+](=O)[O-])cn3)n2)cc1 | ≥ 5.00 |
| CCOC(=O)c1cnc(NCCNc2ccc([N+](=O)[O-])cn2)nc1-c1ccc(-c2nnn[nH]2)cc1 | ≥ 6.00 |

Request the reported pIC50 associated with COc1ccc2c(NC(=O)Nc3cncc(N4C[C@H]5CN(C(=O)OC(C)(C)C)C[C@H]5C4)n3)ccnc2c1 5.00 to 7.00

Request the reported pIC50 associated with O=c1cc(-c2ccncc2)nc2c3ccccc3ccn12 6.48

Request the reported pIC50 associated with N#Cc1ccc2[nH]c(O)c(-c3ccc(CN4CC[C@H]5CNC[C@H]54)cn3)c2c1 (stereo in doubt) > 7.00

###

For reference, the following IC50 results for Glycogen synthase kinase-3 beta (Homo sapiens) were taken from various sources.

| compound | reported.measurement |
| --- | --- |
| COc1cc(Cl)ccc1C(=O)NC1CN(C2CCCC2)CCn2c1nc(-c1ccncn1)cc2=O (racemic) | 0.046 µM |
| Fc1ccc(/C=N/Nc2ncnc3c2cnn3-c2cccnc2)cc1 | < 0.1 µM |
| O=[N+]([O-])c1cccc(Nc2nccc(-c3ccc(Cl)c(Cl)c3)n2)c1 | 4.5 µM |
| Nc1nc(NCCNc2ncc(C(=O)O)c(-c3ccc(Cl)cc3Cl)n2)ccc1[N+](=O)[O-] | ≤ 1 µM |
| O=C(NCc1ccccc1)c1ccc(-c2ccnc(NCCNc3ccc([N+](=O)[O-])cn3)n2)cc1 | ≤ 10 µM |

Form field - read-out: IC50; system: Glycogen synthase kinase-3 beta (Homo sapiens); submitted item: O=C(Nc1c[nH]nc1C(=O)NC1CCNCC1)c1ccc(N2CCOCC2)cc1Cl < 10 µM

Form field - read-out: IC50; system: Glycogen synthase kinase-3 beta (Homo sapiens); submitted item: O=C(Nc1n[nH]c2nc(-c3cnn4ccccc34)c(F)cc12)C1CCCC1 14.9 µM

Form field - read-out: IC50; system: Glycogen synthase kinase-3 beta (Homo sapiens); submitted item: O=[N+]([O-])c1ccc(NCCNc2ncc(-c3ccccc3)c(-c3ccc(O)cc3)n2)nc1 ≤ 10 µM
